Ref: paper PMC12416549

tgt: T1, TNFR1 (Homo sapiens, UniProt P19438)
T1 chain: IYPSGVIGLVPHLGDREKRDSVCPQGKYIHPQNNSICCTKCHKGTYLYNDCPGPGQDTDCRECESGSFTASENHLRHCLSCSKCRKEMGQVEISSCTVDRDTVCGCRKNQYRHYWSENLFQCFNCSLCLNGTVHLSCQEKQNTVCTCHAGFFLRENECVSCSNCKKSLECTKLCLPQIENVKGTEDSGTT
protocol_notes: yeast display SC50
measured_property: apparent Kd (screen) (nM)

A: E37G (designed binder) SMEEEVEKAAKEYEKKKKEAIEKHLEKLKAKDKEAAGRFLKELEEAAKEYAKDEAKTMSEEEAKRRAKKYKEKVLLSELSEEEQKEIKEAEEKLVRTILKYVEEAAK
B: D53E (designed binder) SMEEEVEKAAKEYEKKKKEAIEKHLEKLKAKDKEAAERFLKELEEAAKEYAKEEAKTMSEEEAKRRAKKYKEKVLLSELSEEEQKEIKEAEEKLVRTILKYVEEAAK
Compare the recorded apparent Kd (screen) of A and B ; state which is larger. Give the label of your selection.
B

1: K73E (designed binder) SMEEEVEKAAKEYEKKKKEAIEKHLEKLKAKDKEAAERFLKELEEAAKEYAKDEAKTMSEEEAKRRAKKYKEEVLLSELSEEEQKEIKEAEEKLVRTILKYVEEAAK
2: K29E (designed binder) SMEEEVEKAAKEYEKKKKEAIEKHLEKLEAKDKEAAERFLKELEEAAKEYAKDEAKTMSEEEAKRRAKKYKEKVLLSELSEEEQKEIKEAEEKLVRTILKYVEEAAK
Compare the recorded apparent Kd (screen) of 1 and 2 ; state which is larger. Give the label of your selection.
1
(1: 11.4 nM, 2: 0.869 nM)
